Values compiled from patent US20260116991A1.

- TESTED_ON: T1, human GPC3-His protein (human, UniProt P51654 25-559)
- T1 construct: Bought protein; also called human GPC3 protein; not shown: His tag
- ASSAY_NOTES: ELISA, coated human GPC3, antibody 100 nM;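 also: antibodies bound to antigen-coated 96-well plates (1 µg/mL), 2 h at 37 °C, detected with HRP-labelled secondary antibody and TMB substrate, absorbance read at 450 nm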
MEASURE_NAME: OD450 nm (OD450)
Give the value in OD450 but do not write OD450 after it.

Sample records with OD450 nm:
F4.26.1 human-murine chimeric antibody (antibody, human IgG1, kappa, V domains shown) VH: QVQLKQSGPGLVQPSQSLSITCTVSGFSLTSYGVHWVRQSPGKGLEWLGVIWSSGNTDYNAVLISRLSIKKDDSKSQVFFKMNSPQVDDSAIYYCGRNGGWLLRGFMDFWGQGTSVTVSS VL: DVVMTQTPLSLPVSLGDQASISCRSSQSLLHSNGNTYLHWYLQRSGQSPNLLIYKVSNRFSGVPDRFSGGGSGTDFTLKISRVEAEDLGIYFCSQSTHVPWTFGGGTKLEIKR | 1
F1.42.8 human-murine chimeric antibody (antibody, human IgG1, kappa, V domains shown) VH: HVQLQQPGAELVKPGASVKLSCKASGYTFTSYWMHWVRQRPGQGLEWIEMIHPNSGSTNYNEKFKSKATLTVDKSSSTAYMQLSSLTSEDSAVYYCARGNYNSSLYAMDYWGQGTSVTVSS VL: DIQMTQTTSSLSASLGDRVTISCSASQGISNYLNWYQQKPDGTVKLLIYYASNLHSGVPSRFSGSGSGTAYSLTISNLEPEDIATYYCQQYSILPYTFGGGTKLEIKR | 2.56
F1.145.22 human-murine chimeric antibody (antibody, human IgG1, kappa, V domains shown) VH: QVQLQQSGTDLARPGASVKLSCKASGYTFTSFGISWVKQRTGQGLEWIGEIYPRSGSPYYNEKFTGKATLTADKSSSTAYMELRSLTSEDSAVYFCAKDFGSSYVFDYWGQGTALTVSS VL: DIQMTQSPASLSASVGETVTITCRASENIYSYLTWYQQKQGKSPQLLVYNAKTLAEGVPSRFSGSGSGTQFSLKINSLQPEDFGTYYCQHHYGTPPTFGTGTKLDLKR | 2.53
F2.152.3 human-murine chimeric antibody (antibody, human IgG1, kappa, V domains shown) VH: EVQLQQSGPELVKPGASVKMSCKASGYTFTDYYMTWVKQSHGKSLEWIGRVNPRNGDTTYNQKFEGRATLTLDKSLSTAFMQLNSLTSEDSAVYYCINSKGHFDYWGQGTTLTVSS VL: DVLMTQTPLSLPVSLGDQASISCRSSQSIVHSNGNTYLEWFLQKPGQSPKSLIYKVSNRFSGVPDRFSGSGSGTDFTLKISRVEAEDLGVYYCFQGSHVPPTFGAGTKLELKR | 2.43

Note: attention shifts to another entry.
query: Tell me the measured OD450 nm of F4.13.7 human-murine chimeric antibody (antibody, human IgG1, kappa, V domains shown) VH: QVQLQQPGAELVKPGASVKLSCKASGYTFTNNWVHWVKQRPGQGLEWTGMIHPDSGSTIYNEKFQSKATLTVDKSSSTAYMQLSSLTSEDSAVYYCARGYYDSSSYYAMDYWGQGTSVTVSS VL: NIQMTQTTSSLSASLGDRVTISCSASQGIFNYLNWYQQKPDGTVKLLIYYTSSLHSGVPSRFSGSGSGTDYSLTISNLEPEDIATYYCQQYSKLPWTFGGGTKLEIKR , please.
result: 2.3
